Cited source for all entries: patent US20240116985A1

Molecular target: beta-catenin/TCF4 engagement (Homo sapiens, UniProt P35222)
Construct: expressed in transfected cells; host or cells: HEK293
Sequence (P35222 1-781): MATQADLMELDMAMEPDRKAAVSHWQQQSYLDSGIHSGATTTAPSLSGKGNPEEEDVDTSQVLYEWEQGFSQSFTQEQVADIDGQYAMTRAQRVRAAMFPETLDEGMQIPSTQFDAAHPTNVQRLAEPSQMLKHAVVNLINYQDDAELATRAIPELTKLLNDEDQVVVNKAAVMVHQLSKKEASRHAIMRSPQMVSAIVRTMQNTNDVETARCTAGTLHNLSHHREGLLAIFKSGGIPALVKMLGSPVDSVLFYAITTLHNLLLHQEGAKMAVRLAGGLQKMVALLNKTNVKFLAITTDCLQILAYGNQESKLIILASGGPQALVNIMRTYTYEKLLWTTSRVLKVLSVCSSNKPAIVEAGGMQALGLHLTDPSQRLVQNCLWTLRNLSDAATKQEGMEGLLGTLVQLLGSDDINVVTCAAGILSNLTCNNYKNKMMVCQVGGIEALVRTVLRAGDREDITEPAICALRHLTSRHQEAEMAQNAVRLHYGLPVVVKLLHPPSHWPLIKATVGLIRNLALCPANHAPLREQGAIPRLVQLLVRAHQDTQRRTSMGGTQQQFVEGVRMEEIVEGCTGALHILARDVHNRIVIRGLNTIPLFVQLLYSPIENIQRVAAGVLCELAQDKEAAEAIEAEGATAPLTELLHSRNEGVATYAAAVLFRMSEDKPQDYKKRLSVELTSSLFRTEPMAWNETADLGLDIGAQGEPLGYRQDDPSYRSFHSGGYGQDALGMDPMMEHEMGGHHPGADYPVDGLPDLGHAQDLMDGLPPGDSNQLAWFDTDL
Experiment: Nano-BRET target engagement assay (B-cat-Halo & TCF4-Luc in HEK293 cells)
Assay type: cell-based
Conditions: absolute IC50; read-out: NanoBRET Abs IC50
Task for the reader: assign each of the following compounds its reported pIC50.
Answers are plain numbers, as −log10 of the molar value.

Illustrative cases are given below, each with its answer.
compound: CC(=O)N1CCC[C@]12CC=CCCCC1(CCCC=CCCCOC(=O)N3CC[C@@](C(=O)N[C@@H](Cc4ccccc4Cl)C(=O)N[C@@H](Cc4csc5ccccc45)C(=O)N[C@H](CO)[C@@H](C)O)(C3)NC(=O)[C@H](CC(N)=O)NC(=O)[C@H](Cc3ccccc3)NC(=O)[C@H](C)NC(=O)[C@H](C)NC(=O)[C@H](CC(=O)O)NC(=O)[C@H](CC(=O)O)NC1=O)NC(=O)[C@H](CC(C)(C)C)NC(=O)[C@H](CC(=O)O)NC2=O (stereo partly drawn)
pIC50: 4.85
--
compound: CC(=O)N1CCC[C@]12CC=CCCCC1(CCCC=CCCCOC(=O)N3CC[C@@](C(=O)N[C@@H](Cc4ccccc4C(F)(F)F)C(=O)N[C@@H](Cc4csc5ccccc45)C(=O)N[C@@H](CCC(N)=O)C(=O)N[C@H](C(=O)N[C@@H](C)C(N)=O)C(C)C)(C3)NC(=O)[C@H](CC(C)C)NC(=O)[C@H](Cc3ccccc3)NC(=O)[C@H](C)NC(=O)[C@H](C)NC(=O)[C@H](Cc3cccc(C(=O)O)c3)NC(=O)[C@H](CC(=O)O)NC1=O)NC(=O)[C@H](CC(C)(C)C)NC(=O)[C@H](CC(=O)O)NC2=O (stereo partly drawn)
pIC50: 5.36
--
compound: CC(=O)N1CCC[C@]12CC=CCCCC1(CCCC=CCCCOC(=O)N3CC[C@@](C(=O)N[C@@H](Cc4ccsc4)C(=O)N[C@@H](Cc4csc5ccccc45)C(=O)N[C@@H](CCC(N)=O)C(N)=O)(C3)NC(=O)[C@H](CC(C)C)NC(=O)[C@H](Cc3ccccc3)NC(=O)[C@H](C)NC(=O)[C@H](C)NC(=O)[C@H](CN(CCCC(F)(F)F)CC(=O)O)NC(=O)[C@H](CC(=O)O)NC1=O)NC(=O)[C@H](CC(C)(C)C)NC(=O)[C@H](CC(=O)O)NC2=O (stereo partly drawn)
pIC50: 5.37
--
compound: CC(=O)N1CCC[C@]12CC=CCCCC1(CCCC=CCCCOC(=O)N3CC[C@@](C(=O)N[C@@H](Cc4ccsc4)C(=O)N[C@@H](Cc4csc5ccccc45)C(=O)N[C@@H](CC(C)C)C(N)=O)(C3)NC(=O)[C@H](CC(C)C)NC(=O)[C@H](Cc3ccccc3)NC(=O)[C@H](C)NC(=O)[C@H](C)NC(=O)[C@H](CC(=O)O)NC(=O)[C@H](CC(=O)O)NC1=O)NC(=O)[C@H](CC(C)(C)C)NC(=O)[C@H](CC(=O)O)NC2=O (stereo partly drawn)
pIC50: 4.62
--
compound: CC(=O)N1CCC[C@]12CC=CCCCC1(CCCC=CCCCOC(=O)N3CC[C@@](C(=O)N[C@@H](Cc4ccsc4)C(=O)N[C@@H](Cc4csc5ccccc45)C(=O)N[C@@H](CCC(N)=O)C(N)=O)(C3)NC(=O)[C@H](CC(C)C)NC(=O)[C@H](Cc3ccccc3)NC(=O)[C@H](C)NC(=O)[C@H](C)NC(=O)[C@H](Cc3cccc(C(=O)O)c3)NC(=O)[C@H](CC(=O)O)NC1=O)NC(=O)[C@H](CC(C)(C)C)NC(=O)[C@H](CC(=O)O)NC2=O (stereo partly drawn)
pIC50: 5.64

Each compound below has a reported value. Please supply its pIC50.
1. CC[C@@H]1NC(=O)[C@H](Cc2ccccc2)NC(=O)[C@H](C)NC(=O)C(C)(C)NC(=O)[C@H](Cc2cccc(C(=O)O)c2)NC(=O)[C@H](CC(=O)O)NC(=O)C2(CCCC=CCCCOC(=O)N3CC[C@@](C(=O)N[C@@H](Cc4ccsc4)C(=O)N[C@@H](Cc4csc5ccccc45)C(=O)N[C@@H](CCC(=O)N(CCOC)CCOC)C(N)=O)(C3)NC1=O)CCCC=CC[C@]1(CCCN1C(C)=O)C(=O)N[C@@H](CC(=O)O)C(=O)N[C@@H](CC(C)(C)C)C(=O)N2 (stereo partly drawn)
2. CC(=O)N1CCC[C@]12CC=CCCCC1(CCCC=CCCCOC(=O)N3CC[C@@](C(=O)N[C@@H](Cc4ccccc4Cl)C(=O)N[C@@H](Cc4csc5ccccc45)C(=O)N[C@@H](CCC(N)=O)C(N)=O)(C3)NC(=O)[C@H](CC(N)=O)NC(=O)[C@H](Cc3ccccc3)NC(=O)[C@H](C)NC(=O)[C@H](C)NC(=O)[C@H](CN(CC(=O)O)Cc3ccccc3)NC(=O)[C@H](CC(=O)O)NC1=O)NC(=O)[C@H](CC(C)(C)C)NC(=O)[C@H](CC(=O)O)NC2=O (stereo partly drawn)
3. CC(=O)N1CCC[C@]12CC=CCCCC1(CCCC=CCCCOC(=O)N3CC[C@@](C(=O)N[C@@H](Cc4ccccc4Cl)C(=O)N[C@@H](Cc4csc5ccccc45)C(=O)N[C@H](C(N)=O)[C@@H](C)O)(C3)NC(=O)[C@H](CCCCNC(C)C)NC(=O)[C@H](Cc3ccccc3)NC(=O)[C@H](C)NC(=O)[C@H](C)NC(=O)[C@H](CCC(=O)O)NC(=O)[C@H](CC(=O)O)NC1=O)NC(=O)[C@H](CC(C)(C)C)NC(=O)[C@H](CC(=O)O)NC2=O (stereo partly drawn)

[5.42, 4.36, 4.37]

---

target: full-length beta-Catenin (Uniprot ID P35222) (Homo sapiens, UniProt P35222); construct: 10 nM full-length beta-Catenin (Uniprot ID P35222); assay: Fluorescence polarization IC50 (beta-catenin / 5FAM-TCF4 10-53 competition); assay type: binding; conditions: fluorescence polarization; read-out: beta-Catenin FP IC50
value-kind: IC50
The reply must contain the numeric value and, after it, the unit.

Hey, quick one: what's IC50 for each of these?
1. CC(=O)N1CCC[C@]12CC=CCCCC1(CCCC=CCCCCCC[C@@](C)(C(=O)N[C@@H](Cc3ccsc3)C(=O)N[C@@H](Cc3csc4ccccc34)C(=O)N[C@@H](Cc3c[nH]cn3)C(N)=O)NC(=O)[C@H](CC(N)=O)NC(=O)[C@H](Cc3ccccc3)NC(=O)[C@H](C)NC(=O)[C@H](C)NC(=O)[C@H](CCC(=O)O)NC(=O)[C@H](CC(=O)O)NC1=O)NC(=O)[C@H](C)NC(=O)[C@H](CC(=O)O)NC2=O (stereo partly drawn) [I-516]
2. CC(=O)N1CCC[C@]12CC=CCCCC1(CCCC=CCCCOC(=O)N3CC[C@@](C(=O)N[C@@H](Cc4ccccc4Cl)C(=O)N[C@@H](Cc4csc5ccccc45)C(=O)N[C@@H](CC(=O)N4CCOCC4)C(N)=O)(C3)NC(=O)[C@H]([C@@H](C)O)NC(=O)[C@H](Cc3ccccc3)NC(=O)[C@H](C)NC(=O)[C@H](C)NC(=O)[C@H](CN(CC(=O)O)CC(F)(F)F)NC(=O)[C@H](CC(=O)O)NC1=O)NC(=O)[C@H](CC(C)(C)C)NC(=O)[C@H](CC(=O)O)NC2=O (stereo partly drawn)
3. CC(=O)N1CCC[C@]12CC=CCCCC1(CCCC=CCCCOC(=O)N3CC[C@@](C(=O)N[C@@H](Cc4ccccc4)C(=O)N[C@@H](Cc4csc5ccccc45)C(=O)N[C@@H](Cc4c[nH]cn4)C(N)=O)(C3)NC(=O)[C@H](CC(N)=O)NC(=O)[C@H](Cc3ccccc3)NC(=O)[C@H](C)NC(=O)[C@H](C)NC(=O)[C@H](CCC(=O)O)NC(=O)[C@H](CC(=O)O)NC1=O)NC(=O)[C@H](CC(C)(C)C)NC(=O)[C@H](CC(=O)O)NC2=O (stereo partly drawn) [I-692]

1: 23 nM; 2: 9 nM; 3: 9 nM
